pIC50 reference
# target.or.test.system: Amine oxidase [flavin-containing] B (Homo sapiens, UniProt P27338)
# Sequence (P27338 whole entry): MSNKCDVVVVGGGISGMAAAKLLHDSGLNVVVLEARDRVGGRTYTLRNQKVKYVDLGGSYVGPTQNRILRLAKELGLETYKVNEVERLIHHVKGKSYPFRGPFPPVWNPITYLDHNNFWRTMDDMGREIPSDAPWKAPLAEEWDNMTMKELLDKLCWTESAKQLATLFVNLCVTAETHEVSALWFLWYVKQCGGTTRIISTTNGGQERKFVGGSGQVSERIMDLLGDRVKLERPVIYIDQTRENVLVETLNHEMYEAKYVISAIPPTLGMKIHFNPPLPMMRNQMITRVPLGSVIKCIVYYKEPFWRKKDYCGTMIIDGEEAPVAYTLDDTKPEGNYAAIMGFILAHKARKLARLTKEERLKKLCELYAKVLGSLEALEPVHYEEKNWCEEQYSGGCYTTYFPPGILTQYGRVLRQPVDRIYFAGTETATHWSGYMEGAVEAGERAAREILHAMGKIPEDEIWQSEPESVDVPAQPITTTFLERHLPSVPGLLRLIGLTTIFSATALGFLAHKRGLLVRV
pIC50: −log10 of the molar value.
recorded.endpoint: pIC50

>>> result("NC(=O)Cc1nc2cc(OCc3cccc(Cl)c3)ccc2[nH]1")
6.53
>>> result("NC(=O)Cc1nc2cc(OCc3ccc(Cl)cc3)ccc2[nH]1")
6.35
>>> result("NC(=O)Cc1nc2cc(OCc3cccc(F)c3)ccc2[nH]1")
6.90
>>> result("Cc1cccc(COc2ccc3[nH]c(CC(N)=O)nc3c2)c1")
6.21

* * *

# target.or.test.system: Amine oxidase [flavin-containing] B (Homo sapiens)
# Sequence (P27338 whole entry): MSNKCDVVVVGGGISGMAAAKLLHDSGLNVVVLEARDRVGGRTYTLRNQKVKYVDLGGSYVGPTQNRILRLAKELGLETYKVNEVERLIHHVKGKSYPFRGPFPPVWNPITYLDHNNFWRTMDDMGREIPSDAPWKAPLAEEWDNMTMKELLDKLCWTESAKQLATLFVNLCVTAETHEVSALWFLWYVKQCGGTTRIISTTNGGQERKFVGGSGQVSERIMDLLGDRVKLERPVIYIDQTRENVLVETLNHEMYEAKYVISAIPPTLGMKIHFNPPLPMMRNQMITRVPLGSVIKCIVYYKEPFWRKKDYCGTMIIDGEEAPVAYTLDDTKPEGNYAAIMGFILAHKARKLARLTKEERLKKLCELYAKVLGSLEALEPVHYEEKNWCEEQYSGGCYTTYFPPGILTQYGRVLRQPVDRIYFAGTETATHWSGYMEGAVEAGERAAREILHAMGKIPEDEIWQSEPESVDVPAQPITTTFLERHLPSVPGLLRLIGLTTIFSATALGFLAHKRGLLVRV
# setup.conditions: 0.5 h, read-out: INH
# Description: Inhibition of human MAO-B at 1 uM preincubated with compound for 10 mins followed by substrate addition and measured after 30 mins relative to control
recorded.endpoint: inhibition at 1 µM (%)

>>> result("Cc1ccc(COc2ccc3[nH]c(CC(N)=O)nc3c2)cc1")
8.29
>>> result("Cc1cccc(NC(=O)c2ccc3[nH]c(CC(N)=O)nc3c2)c1C")
27.2
>>> result("NC(=O)Cc1nc2cc(C(=O)Nc3cccc(F)c3)ccc2[nH]1")
39.6
>>> result("NC(=O)Cc1nc2cc(C(=O)Nc3ccc(Cl)cc3)ccc2[nH]1")
38.4
>>> result("COc1cccc(NC(=O)c2ccc3[nH]c(CC(N)=O)nc3c2)c1")
34.6
>>> result("NC(=O)Cc1nc2cc(OCc3ccc(Cl)cc3)ccc2[nH]1")
58.5
>>> result("Cc1ccc(NC(=O)c2ccc3[nH]c(CC(N)=O)nc3c2)cc1C")
31.3
>>> result("NC(=O)Cc1nc2cc(OCc3cccc(F)c3)ccc2[nH]1")
67.5
>>> result("C#CCN(C)Cc1ccccc1")
62.9
